Test system: S. aureus ATCC 6538
Test: agar diffusion test (Test System II, multi-resistant germs)
Type: cell-based, Staphylococcus aureus
Conditions: Quantity n 0.1
Description: The test substances are deposited in stepped quantities (10 μg, 50 μg, 100 μg) onto active ingredient carriers (sensi-discs). For this purpose, the test substances are dissolved in methanol or A. dest. according to their solubility. Each inoculated plate is fitted with 3 test sheets. Test System II (Effect Against Multi-Resistant Germs) For this purpose, bacteria is cultivated on Müller-Hinton-Agar II plates. […]
Quick reference: Diameter of zone of inhibition of the listed items.
Your answer is read as mm, so omit the unit and give the number.

Here is how some compounds turned out for Diameter of zone of inhibition.
> print(dat)
                                   compound  result.unit  quantitative.readout
1  CC1=C(C(=O)O)N2C(=O)C(NC(=O)C(NC3=C(C(N)=O)C(=O)C=CC3=O)c3ccccc3)C2SC1 (centres unmarked) [1f]           mm                    30
2  COC(=O)C1=C(NC(C(=O)NC2C(=O)N3C(C(=O)O)=C(C)CSC23)c2ccc(O)cc2)C(=O)C=CC1=O (centres unmarked) [1c]           mm                    26
3  NC(=O)C1=C(NC(C(=O)NC2C(=O)N3C(C(=O)O)=C(Cl)CSC23)c2ccccc2)C(=O)C=CC1=O (centres unmarked) [1j]           mm                    34
4  CC1=C(C(=O)O)N2C(=O)[C@@H](NC(=O)[C@H](N)c3ccc(O)cc3)[C@H]2SC1 [2a, Cefadroxil, reference compound]           mm                    38

Okay, next one:
# Diameter of zone of inhibition of N[C@@H](C(=O)N[C@@H]1C(=O)N2C(C(=O)O)=C(Cl)CS[C@H]12)c1ccccc1 [2c, Cefaclor, reference compound] = 38

---

system: Staphylococcus aureus 315; assay: agar diffusion test (Test System II, multi-resistant germs); assay type: cell-based; conditions: Quantity n 0.1
experimental readout: Diameter of zone of inhibition (mm)
Reply with just the number (in mm).

> print(dat)
                                   compound            experimental.readout  quantitative.readout
1  NC(=O)C1=C(NC(C(=O)NC2C(=O)N3C(C(=O)O)=C(Cl)CSC23)c2ccccc2)C(=O)C=CC1=O (centres unmarked) [1j]  Diameter of zone of inhibition                     8

Please turn your attention to the following entry.
Quick note, Diameter of zone of inhibition for N[C@@H](C(=O)N[C@@H]1C(=O)N2C(C(=O)O)=C(Cl)CS[C@H]12)c1ccccc1 [2c, Cefaclor, reference compound] landed at 10

---

Test system: S. aureus 33490
Experiment: agar diffusion test (Test System II, multi-resistant germs)
Assay type: cell-based, Staphylococcus aureus
Conditions: Quantity n [μmol] 0.019
Method: The test substances are deposited in stepped quantities (10 μg, 50 μg, 100 μg) onto active ingredient carriers (sensi-discs). For this purpose, the test substances are dissolved in methanol or A. dest. according to their solubility. Each inoculated plate is fitted with 3 test sheets. Test System II (Effect Against Multi-Resistant Germs) For this purpose, bacteria is cultivated on Müller-Hinton-Agar II plates. […]
experimental readout: Diameter of zone of inhibition (mm)
Give just the number in mm; leave the unit off.

See these solved cases before continuing.
> print(dat)
                                   molecule  result.unit  quantitative.readout
1  CC1=C(C(=O)O)N2C(=O)[C@@H](NC(=O)[C@H](N)c3ccc(O)cc3)[C@H]2SC1 [2a, Cefadroxil, reference compound]           mm                    16
2  CCOC(=O)C1=C(NC(C(=O)NC2C(=O)N3C(C(=O)O)=C(Cl)CSC23)c2ccccc2)C(=O)C=CC1=O (stereo not shown) [1l]           mm                    14

Consider N[C@@H](C(=O)N[C@@H]1C(=O)N2C(C(=O)O)=C(Cl)CS[C@H]12)c1ccccc1 [2c, Cefaclor, reference compound] . Its measured Diameter of zone of inhibition is 24
